Provenance of the data: PubChem BioAssay AID1159580

- method: chemical genetic growth profiling, strain panel (AID 1159580);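 further: tested at 20 µM; growth read once vehicle control cultures reached saturation at 30 °C; 1 = growth at the plate median or of vehicle wells; lower values mean less growth of the strain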
- study_conditions: S. cerevisiae deletion strains, growth OD, locus YCL016C, strain dcc1, stronger effect = lower value
The campaign covered roughly 5,500 compounds. About 2,000 (36%) were called active. Inconclusive results (about 18%) are left out. The list shows a part of the results.
For each record, write down the corresponding normalized growth.
Answers are plain numbers.

Take a look at these entries with their results.
compound	recorded_metric	result_value
CN=C(NC#N)NCCSCc1nc[nH]c1C	normalized growth	0.989
CC[C@@H](CO)NCCN[C@@H](CC)CO	normalized growth	1.04

Record normalized growth for all entries; do not skip any.
1. Cc1ccc(O)cc1
2. CCc1ccc(CCOc2ccc(CC3SC(=O)NC3=O)cc2)nc1 (stereo unspecified)
3. CCC1(C)CC(=O)NC1=O (stereo unspecified)

1. 1.01
2. 1
3. 0.986

Record normalized growth for all entries; do not skip any.
1. CC[C@H]1OC(=O)C[C@@H](O)[C@H](C)[C@@H](O[C@@H]2O[C@H](C)[C@@H](O[C@H]3C[C@@](C)(O)[C@@H](O)[C@H](C)O3)[C@H](N(C)C)[C@H]2O)[C@@H](CC=O)C[C@@H](C)C(=O)/C=C/C(C)=C/[C@@H]1CO[C@@H]1O[C@H](C)[C@@H](O)[C@@H](OC)[C@H]1OC
2. CC(=O)OC1CC23CC24CCC(OC2OCC(O)C(O)C2O)C(C)(C)C4CCC3C2(C)CC3OC4(CC(C)C3C12C)OC(O)C1(C)OC41 (stereo unspecified)
3. COc1ccc(-c2coc3c(O)c(OC)ccc3c2=O)cc1
4. CCC1(c2ccccc2)C(=O)NCNC1=O
5. CC(C)(N=NC(C)(C)C(=N)N)C(=N)N
6. CC1(C)S[C@@H]2[C@H](NC(=O)[C@H](NC(=O)N3CCNC3=O)c3ccccc3)C(=O)N2C1C(=O)O (stereo partly specified)

[1, 0.998, 0.877, 1.01, 1.03, 0.986]

Record normalized growth for all entries; do not skip any.
1. COc1ccc2c(c1)C1(C)CCC(=O)CC1CC2 (stereo unspecified)
2. S=C=NCc1ccccc1
3. CCN(CC)C(=S)SSC(=S)N(CC)CC
4. CCC1(c2ccc(N)cc2)CCC(=O)NC1=O (stereo unspecified)
5. CO[C@H]1C[C@H](O[C@H]2[C@H](C)[C@@H](OC3O[C@H](C)C[C@H](N(C)C)[C@H]3O)[C@@H](C)C[C@]3(CO3)C(=O)[C@H](C)[C@@H](O)[C@@H](C)[C@@H](C)OC(=O)[C@@H]2C)O[C@@H](C)[C@@H]1O (stereo partly specified)
6. Cc1cc(OC(=O)N2CCCCC2)c(C(C)C)cc1[N+](C)(C)C
7. CC(=O)OCC(CCn1cnc2cnc(N)nc21)COC(C)=O
8. O=C(O)C1CC([C@@H]2CCCCN2)CN2CCCCC12 (stereo partly specified)

[1, 0.0958, 0.065, 0.994, 1.02, 0.987, 0.998, 0.989]

Record normalized growth for all entries; do not skip any.
1. CC(C)=CCc1c(O)cc2oc(C)cc(=O)c2c1O
2. COC1C(O)C(O)C(O)[C@@H](O)C1O (stereo partly specified)

0.969
0.968

====

- method: chemical genetic growth profiling, strain panel (AID 1159580);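 further: tested at 20 µM; growth read once vehicle control cultures reached saturation at 30 °C; 1 = growth at the plate median or of vehicle wells; lower values mean less growth of the strain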
- study_conditions: S. cerevisiae deletion strains, growth OD, locus YLR268W, strain sec22, stronger effect = lower value
In all, about 5,500 compounds went through this assay and about 2,000 (36%) were called active. Roughly 18% stayed inconclusive and do not appear here. This is one part of the list.
Checkbox rule: normalized growth lower than 1 = yes; normalized growth not lower than 1 = no.

Before answering, review these 5 worked examples.
compound	cat
COC1C(O)C(O)C(O)[C@@H](O)C1O (stereo partly drawn)	no
CNC1(C)C2CCC(C2)C1(C)C (stereo not drawn)	yes
COc1c2c(c(CC=C(C)C)c3oc(=O)c(-c4ccc(O)cc4)c(O)c13)OC(C)(C)C=C2	yes
CCCCOc1ccc(OCCCN2CCOCC2)cc1	yes
COc1c(CC=C(C)C)c2c(c3oc(=O)c(-c4ccc(OC(C)=O)cc4)c(OC(C)=O)c13)C=CC(C)(C)O2	no

Shifting focus to the compound that follows.
# strict comparison: is reported normalized growth < 1? input = COC(=O)COc1ccc(Cl)cc1Cl no
